// provenance: PubChem BioAssay AID1159580

measurement description: chemical genetic growth profiling, strain panel (AID 1159580);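 note: tested at 20 µM; growth read once vehicle control cultures reached saturation at 30 °C; lower values mean less growth of the strain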
condition label: S. cerevisiae deletion strains, growth OD, locus YOR069W, strain VPS5
The campaign covered roughly 5,500 compounds. About 2,000 (36%) were called active. About 18% were inconclusive and are not listed. Cut-off read from the data, not from the text of the source: active = normalized growth mostly below about 0.91 (no sharp cut-off); inconclusive = no clear call, values can overlap the other calls; inactive = mostly above about 0.92. This is one part of the list.
Return exactly one item of active, inactive

# count of solved cases: 2
1) COc1ccc2cc(CCC(C)=O)ccc2c1    inactive
2) CC(=O)Oc1cccc(O)c1    inactive

Query block: Call for entry CC12CCC(=O)C=C1CCC1C2[C@@H](O)CC2(C)C1CC[C@]2(O)C(=O)COP(=O)(O)O (stereo partly specified) :
Result block: inactive

Query block: Call for entry `CC(=O)Oc1c(Cl)c(C)c2c(c1Cl)OC(=O)c1c(C)c(Cl)c(OC(C)=O)c(Cl)c1O2` :
Result block: inactive

Query block: Call for entry `NNCc1cccc(O)c1` :
Result block: inactive
